Reference for the values: patent US9169241B2

The reader will find reported melting point values listed item by item below.
measured.quantity: melting point

INSERT INTO measurements (compound, reported_result) VALUES
  ('COc1cc2c(Oc3ccc(NS(=O)(=O)c4cccc(F)c4)cc3F)ccnc2cc1OCCCN1CCN(C)CC1 [Example 22]', '82 to 84 °C'),
  ('COC(=O)c1sccc1S(=O)(=O)Nc1ccc(Oc2ccnc3cc(OCCCN4CCN(C)CC4)c(OC)cc23)c(F)c1 [Example 158]', '146 to 148 °C'),
  ('COc1cc2c(Oc3ccc(NS(=O)(=O)c4c(F)cccc4F)cc3F)ccnc2cc1OCCCN(C)C [Example 178]', '125 to 127 °C'),
  ('COc1cc2c(Oc3ccc(Cl)c(NS(=O)(=O)c4c(F)cccc4F)c3)ccnc2cc1OCCCN1CCC(C)CC1 [Example 194]', '222 to 226 °C'),
  ('COc1cc2c(Oc3ccc(NS(=O)(=O)c4ccccc4OC(F)(F)F)cc3F)ccnc2cc1OCCCN1CCCCC1C (stereo not shown) [Example 153]', '90 to 92 °C'),
  ('COc1cc2c(Oc3ccc(Cl)c(NS(=O)(=O)c4ccccc4C(F)(F)F)c3)ccnc2cc1OCCCN1CCC(C)CC1 [Example 195]', '179 to 181 °C'),
  ('COc1ccc2nccc(Oc3ccc(NS(=O)(=O)c4ccccc4OC(F)(F)F)cc3F)c2c1 [Example 202]', '175 to 176 °C');

----------
The reader will find reported viability at 10 µM values listed item by item below.
- Test system: viable cells in culture
- procedure.details: Cell viability assay at 10 μM (CellTiter-Glo, Table VII);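 also: graded A 0-20%; B 21-40%; C 41-60%; D over 60% viable cells relative to DMSO control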
- Assay type: cell-based
- test.conditions: RKO; compound 10 μM; 72 h; read-out: percentage (%) of viable cells RKO
- Protocol: The CellTiter-Glo® Luminescent Cell Viability Assay (Promega Corporation. Madison, Wis., USA) is method a determining the number of viable cells in culture based on quantification of the ATP being present which is an indicator of metabolically active cells was used according to manufacturers protocol. […] Percentage of inhibition was calculated compared to ATP amount of DMSO control.
measured.quantity: viability at 10 µM

INSERT INTO results (compound, reported_result) VALUES
  ('COc1cc(S(=O)(=O)Nc2ccc(Oc3ccnc4cc(OCCCN5CCN(C)CC5)c(OC)cc34)c(F)c2)ccc1F [Example 18]', '0 to 20%'),
  ('O=S(=O)(Nc1ccc(Oc2ccnc3cc(OCCCCN4CCOCC4)ccc23)c(F)c1)c1cc(F)ccc1F [Example 84]', '0 to 20%'),
  ('COc1cc2c(Oc3ccc(NS(=O)(=O)c4ccccc4C#N)cc3F)ccnc2cc1OCCCN1CCN(C)CC1 [Example 15]', '41 to 60%'),
  ('COc1cc2c(Oc3ccc(NS(=O)(=O)c4cc(F)ccc4F)cc3F)ccnc2cc1OCCCCN1CCOCC1 [Example 83]', '> 60%'),
  ('COc1cc2c(Oc3ccc(NS(=O)(=O)c4ccccc4Cl)cc3F)ccnc2cc1OCCCN1CCN(C)CC1 [Example 29]', '0 to 20%'),
  ('COc1cc2c(Oc3ccc(NS(=O)(=O)c4ccc(F)c(Cl)c4)cc3F)ccnc2cc1OCCCN1CCN(C)CC1 [Example 23]', '0 to 20%'),
  ('CCN(CC)CCCOc1cc2nccc(Oc3ccc(NS(=O)(=O)c4ccccc4C(F)(F)F)cc3F)c2cc1OC [Example 101]', '0 to 20%');

----------
The reader will find reported melting point values listed item by item below.
measured.quantity: melting point

INSERT INTO results (smi, reported_result) VALUES
  ('COc1cc2c(Oc3ccc(NS(=O)(=O)c4cc(Cl)ccc4Cl)cc3F)ccnc2cc1OCCCN1CCN(C)CC1', '134 to 136 °C'),
  ('COc1cc2c(Oc3ccc(NS(=O)(=O)c4c(F)cccc4F)cc3F)ccnc2cc1OCCCN1CCOCC1', '190 to 192 °C'),
  ('COc1cc2c(Oc3ccc(NS(=O)(=O)c4ccco4)cc3F)ccnc2cc1OCCCN(C)C', '185 to 187 °C'),
  ('COc1cc2c(Oc3c(Cl)cc(NS(=O)(=O)c4ccccc4C(F)(F)F)cc3Cl)ccnc2cc1OCCCN1CCC(C)CC1', '148 to 151 °C'),
  ('COc1cc2c(Oc3ccc(NS(=O)(=O)c4c(F)cccc4F)cc3Cl)ccnc2cc1OCCCN1CCN(C)CC1', '122 to 124 °C'),
  ('COc1cc2c(Oc3ccc(NS(=O)(=O)c4ccc(F)c(Cl)c4)cc3F)ccnc2cc1OCCCN1CCN(C)CC1', '108 to 110 °C'),
  ('COC(=O)c1sccc1S(=O)(=O)Nc1cccc(Oc2ccnc3cc(OCCCN4CCN(C)CC4)c(OC)cc23)c1', '84 to 86 °C');

----------
- system.under.test: wild type AXL (wtAXL) receptor tyrosine kinase (Homo sapiens, UniProt P30530)
- Construct: WtAXL cDNA was cloned into vector pLXSN(ESK) and transfected into Phoenix E packaging cells; expressed in transfected cells; host or cells: NIH3T3 N7 (mouse fibroblasts), retrovirally infected, clone 22
- Sequence (P30530 26-894): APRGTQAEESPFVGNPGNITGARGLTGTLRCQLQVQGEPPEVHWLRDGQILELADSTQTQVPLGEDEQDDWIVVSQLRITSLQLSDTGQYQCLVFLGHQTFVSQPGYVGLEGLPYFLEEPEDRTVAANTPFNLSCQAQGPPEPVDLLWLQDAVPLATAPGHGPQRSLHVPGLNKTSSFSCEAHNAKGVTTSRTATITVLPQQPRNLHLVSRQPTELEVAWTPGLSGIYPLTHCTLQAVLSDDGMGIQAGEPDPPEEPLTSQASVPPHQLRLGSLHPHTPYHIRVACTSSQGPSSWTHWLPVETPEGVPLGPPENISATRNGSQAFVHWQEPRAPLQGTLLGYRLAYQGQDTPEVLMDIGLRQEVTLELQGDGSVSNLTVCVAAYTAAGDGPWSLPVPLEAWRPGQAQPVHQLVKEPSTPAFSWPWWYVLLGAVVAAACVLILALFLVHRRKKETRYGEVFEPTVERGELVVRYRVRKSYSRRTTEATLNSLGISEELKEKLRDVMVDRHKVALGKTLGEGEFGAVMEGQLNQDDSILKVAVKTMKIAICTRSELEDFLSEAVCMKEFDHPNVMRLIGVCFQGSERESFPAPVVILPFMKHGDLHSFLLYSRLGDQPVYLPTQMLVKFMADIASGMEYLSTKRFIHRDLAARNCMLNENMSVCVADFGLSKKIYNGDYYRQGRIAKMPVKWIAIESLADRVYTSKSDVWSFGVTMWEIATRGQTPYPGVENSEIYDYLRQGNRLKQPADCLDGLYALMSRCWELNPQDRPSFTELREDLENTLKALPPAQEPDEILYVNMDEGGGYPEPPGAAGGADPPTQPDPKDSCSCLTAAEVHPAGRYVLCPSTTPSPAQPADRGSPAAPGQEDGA
- procedure.details: NIH-3T3-AXL cellular kinase assay (pY-AXL-ELISA)
- Type: cell-based
- test.conditions: NIH-3T3-AXL (clone 22) cells, serum depleted, compounds 1 h; Table Ia
pIC50: −log10 of the molar value.
The reader will find reported pIC50 values listed item by item below.
measured.quantity: pIC50

INSERT INTO measurements (molecule, reported_result) VALUES
  ('COc1cc2c(Oc3ccc(NS(=O)(=O)c4cc(Cl)ccc4Cl)cc3F)ccnc2cc1OCCCN1CCCCC1C (centres unmarked) [Example 154]', '> 6.30'),
  ('COc1cc2c(Oc3ccc(NS(=O)(=O)c4cccs4)cc3F)ccnc2cc1OCCCN(C)C [Example 186]', '> 6.30'),
  ('COc1cc2c(Oc3ccc(NS(=O)(=O)c4cc(F)ccc4F)cc3Cl)ccnc2cc1OCCCN1CCN(C)CC1 [Example 112]', '> 6.30'),
  ('COc1cc2c(Oc3ccc(NS(=O)(=O)c4c(F)cccc4F)cc3F)ccnc2cc1OCCCN(C)C [Example 178]', '> 6.30'),
  ('COc1cc2c(Oc3ccc(Cl)c(NS(=O)(=O)c4c(F)cccc4F)c3)ccnc2cc1OCCCN1CCC(C)CC1 [Example 194]', '5.52 to 6.30'),
  ('COc1cc2c(Oc3ccc(Cl)c(NS(=O)(=O)c4cc(F)ccc4F)c3)ccnc2cc1OCCCN1CCC(C)CC1 [Example 193]', '5.52 to 6.30'),
  ('COc1cc2c(Oc3cccc(NS(=O)(=O)c4cc(Cl)ccc4Cl)c3)ccnc2cc1OCCCN1CCN(C)CC1 [Example 127]', '5.52 to 6.30'),
  ('COc1cc2c(Oc3ccc(NS(=O)(=O)c4c(F)cccc4F)cc3F)ccnc2cc1OCCCN1CCCCC1 [Example 11]', '> 6.30'),
  ('COc1cc2c(Oc3cccc(NS(=O)(=O)c4cc(Cl)sc4Cl)c3)ccnc2cc1OCCCN1CCN(C)CC1 [Example 134]', '5.52 to 6.30'),
  ('COc1cc2c(Oc3ccc(NS(=O)(=O)c4ccccc4C(F)(F)F)cc3Cl)ccnc2cc1OCCCN1CCN(C)CC1 [Example 87]', '> 6.30'),
  ('COc1cc2c(Oc3ccc(NS(=O)(=O)c4cc(F)ccc4F)cc3C)ccnc2cc1OCCCN1CCC(C)CC1 [Example 171]', '5.52 to 6.30'),
  ('COc1cc2c(Oc3ccc(NS(=O)(=O)c4ccccc4F)cc3Cl)ccnc2cc1OCCCN1CCN(C)CC1 [Example 111]', '> 6.30'),
  ('COC(=O)c1sccc1S(=O)(=O)Nc1ccc(Oc2ccnc3cc(OCCCN4CCCC(C)C4)c(OC)cc23)c(F)c1 (centres unmarked) [Example 66]', '> 6.30'),
  ('COc1cc2c(Oc3ccc(Cl)c(NS(=O)(=O)c4c(Cl)cccc4Cl)c3)ccnc2cc1OCCCN1CCC(C)CC1 [Example 198]', '5.52 to 6.30'),
  ('COc1cc2c(Oc3ccc(NS(=O)(=O)c4cccc(Oc5ccccc5)c4)cc3F)ccnc2cc1OCCCN1CCCCC1 [Example 10]', '> 6.30'),
  ('COc1cc2c(Oc3ccc(NS(=O)(=O)c4cc(Cl)cc(Cl)c4OC)cc3F)ccnc2cc1OCCCN1CCN(C)CC1 [Example 35]', '> 6.30'),
  ('COc1ccc2nccc(Oc3ccc(NS(=O)(=O)c4ccccc4OC(F)(F)F)cc3F)c2c1 [Example 202]', '5.52 to 6.30'),
  ('COc1cc2c(Oc3ccc(NS(=O)(=O)c4cccc(Oc5ccccc5)c4)cc3F)ccnc2cc1OCCCN1CCCC(C)C1 (centres unmarked) [Example 59]', '> 6.30'),
  ('COc1cc2c(Oc3cccc(NS(=O)(=O)c4c(Cl)cccc4Cl)c3)ccnc2cc1OCCCN1CCN(C)CC1 [Example 128]', '5.52 to 6.30'),
  ('COc1cc2c(Oc3ccc(NS(=O)(=O)c4ccco4)cc3F)ccnc2cc1OCCCN1CCCCC1C (centres unmarked) [Example 148]', '5.52 to 6.30'),
  ('COc1cc2c(Oc3ccc(NS(=O)(=O)c4csc5ccccc45)cc3F)ccnc2cc1OCCCN1CCC(C)CC1 [Example 115]', '> 6.30'),
  ('COc1cc2c(Oc3cc(NS(=O)(=O)c4cc(Cl)ccc4Cl)ccc3F)ccnc2cc1OCCCN1CCC(C)CC1 [Example 191]', '5.52 to 6.30'),
  ('COc1cc2c(Oc3ccc(NS(=O)(=O)c4cccc(F)c4)cc3F)ccnc2cc1OCCCN1CCCC(C)C1 (centres unmarked) [Example 37]', '> 6.30'),
  ('COc1cc2c(Oc3ccc(NS(=O)(=O)c4ccccc4OC(F)(F)F)cc3C)ccnc2cc1OCCCN1CCC(C)CC1 [Example 174]', '5.52 to 6.30'),
  ('COc1ccc2nccc(Oc3ccc(NS(=O)(=O)c4cc(F)ccc4F)cc3F)c2c1 [Example 199]', '5.52 to 6.30'),
  ('COC(=O)c1sccc1S(=O)(=O)Nc1ccc(Oc2ccnc3cc(OCCCN4CCCCC4)c(OC)cc23)c(F)c1 [Example 155]', '> 6.30'),
  ('COc1cc2c(Oc3ccc(NS(=O)(=O)c4ccccc4[N+](=O)[O-])cc3F)ccnc2cc1OCCCN1CCCCC1 [Example 7]', '> 6.30'),
  ('COc1cc2c(Oc3ccc(NS(=O)(=O)c4c(F)cccc4F)cc3OC)ccnc2cc1OCCCN1CCC(C)CC1 [Example 173]', '5.52 to 6.30'),
  ('COc1cc2c(Oc3ccc(NS(=O)(=O)c4cc(Cl)ccc4Cl)cc3F)ccnc2cc1OCCCN1CCCC(C)C1 (centres unmarked) [Example 50]', '> 6.30');
